test system: SK-OV-3; experiment: NCI tumour cell line growth inhibition, 48 h
The source made the active and inactive calls. Cut-off read from the data, not from the text of the source: active = GI50 up to about 1.1 µM and inactive = higher.
METRIC: GI50

> print(dat)
                                    compound               result
 1             O=C1C=CC(=O)c2c(O)nc(CBr)nc21  > 100 µM (inactive)
 2  CN1CCN(Cc2nc3cccc4c3c([n+]2[O-])-c2ccccc2-4)CC1   59.3 µM (inactive)
 3      N=C(c1ccc2ccccc2c1)c1ccccc1Cc1ccccc1     43 µM (inactive)
 4  C[n+]1c2ccccc2c(/C=N\NS(=O)(=O)c2ccc(Cl)cc2)c2ccccc21  > 100 µM (inactive)
 5  COc1cc([C@@H]2c3cc4c(cc3[C@@H](NCc3ccccc3)C3COC(=O)[C@@H]32)OCO4)cc(OC)c1O (stereo not given in full)   6.52 µM (inactive)
 6  CCn1c(-c2ccc(C)cc2)cs/c1=N\C(P(=O)(O)O)P(=O)(O)O  > 100 µM (inactive)
 7    CSC1=Nc2ccccc2N(C)c2c1c(-c1ccccc1)nn2C   37.3 µM (inactive)
 8  COC(=O)[C@@]1(Cc2ccc(OC(C)=O)cc2)Cc2cc3ccccc3n2N1  > 100 µM (inactive)
 9  Nc1c(C(=O)c2ccc(Cl)cc2)[nH]c(Nc2ccc(Cl)cc2)c1C(=S)Nc1ccccc1   6.52 µM (inactive)
10  Cc1ccc([N+](=O)[O-])cc1S(=O)(=O)Nc1ccc(C(=O)/C=C/c2ccccc2)cc1   31.3 µM (inactive)
11           O=C(NO)c1cccc(OCc2ccc(Br)cc2)c1   5.21 µM (inactive)
12  COc1c(C(=O)CC2c3c(cc4oc(C)cc(=O)c4c3OC)OC(=N)C2c2nc3ccccc3[nH]2)c(O)c(OC)c2occc12 (stereo not given)  > 100 µM (inactive)
13          O=C(CCc1ccc(O)c(O)c1)OCCc1ccccc1  > 100 µM (inactive)
14  CSC1NC(c2ccc(Cl)cc2)=C(C#N)C(=O)N1C1OCC(OC(C)=O)C(OC(C)=O)C1OC(C)=O (stereo not given)  > 100 µM (inactive)
15  CC(NC(=O)c1ccc(OP(=O)(OCC2=CC(=O)c3ccccc3C2=O)N(C)CCCCCl)cc1)c1ccc(OCC2CCCCC2)c(C(N)=O)c1 (stereo not given)   15.4 µM (inactive)
16  CCOc1ccccc1NC(=O)C(=O)CC(=O)C1=C(C)Nc2ccccc2S1  > 100 µM (inactive)
17      O=C1C=C(Br)c2c(-c3ccccc3)oc3cccc1c23   54.1 µM (inactive)
18               N#Cc1c(C(N)=O)ncn1Cc1ccccc1  > 100 µM (inactive)
19  O=C1CSC(c2ccc(Cl)cc2Cl)N1c1ccc(Oc2ccc(Cl)cc2)c(Cl)c1 (stereo not given)   30.7 µM (inactive)
20  C/C(CC(=O)Nc1ccccc1[N+](=O)[O-])=N\NC(N)=O  > 100 µM (inactive)
